test system: Amyloid-beta precursor protein (Homo sapiens) (UniProt P05067)
Sequence (P05067 whole entry): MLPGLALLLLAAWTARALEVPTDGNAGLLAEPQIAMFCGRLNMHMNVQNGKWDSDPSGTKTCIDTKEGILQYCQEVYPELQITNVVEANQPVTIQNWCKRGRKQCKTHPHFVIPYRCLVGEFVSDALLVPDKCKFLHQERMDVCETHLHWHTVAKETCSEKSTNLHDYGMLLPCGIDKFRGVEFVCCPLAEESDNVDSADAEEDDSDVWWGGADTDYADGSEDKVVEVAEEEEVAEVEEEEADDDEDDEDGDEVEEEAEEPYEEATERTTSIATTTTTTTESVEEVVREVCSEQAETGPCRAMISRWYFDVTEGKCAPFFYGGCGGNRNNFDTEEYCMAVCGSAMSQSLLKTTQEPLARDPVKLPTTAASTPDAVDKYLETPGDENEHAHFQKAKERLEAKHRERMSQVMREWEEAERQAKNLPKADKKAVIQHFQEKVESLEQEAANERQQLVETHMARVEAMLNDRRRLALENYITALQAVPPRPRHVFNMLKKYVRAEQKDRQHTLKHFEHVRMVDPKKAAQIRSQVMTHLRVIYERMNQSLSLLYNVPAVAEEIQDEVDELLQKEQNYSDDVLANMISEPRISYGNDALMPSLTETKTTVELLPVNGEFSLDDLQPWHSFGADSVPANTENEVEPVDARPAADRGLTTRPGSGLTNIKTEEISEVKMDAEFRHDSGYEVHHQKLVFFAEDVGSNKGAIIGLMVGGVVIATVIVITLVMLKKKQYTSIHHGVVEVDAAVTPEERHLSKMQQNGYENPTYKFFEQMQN
assay: Inhibition of HFIP-pretreated self-induced amyloid beta (1 to 42) (unknown origin) aggregation at 25 uM measured after 24 hrs by ThT fluorescence assay relative to control

# compound, unit abbreviation, result modifier, inhibition
measured = [
    ("CCN(CCCCC1OC(=O)c2cc(OC)c(OC)cc21)Cc1ccccc1N(C)C (stereo not drawn)", "%", "=", 15.3),
    ("COc1cc2c(cc1OC)C(CCCCN(C)Cc1ccccc1)OC2=O (stereo not drawn)", "%", "=", 8.9),
    ("COc1ccccc1CN(C)CCC/C=C1/OC(=O)c2cc(OC)c(OC)cc21", "%", "=", 19.1),
    ("CCN(CCC/C=C1\\OC(=O)c2cc(OC)c(OC)cc21)Cc1ccccc1", "%", "=", 17),
    ("CCN(CCCCC1OC(=O)c2cc(OC)c(OC)cc21)Cc1ccc(N(C)C)cc1 (stereo not drawn)", "%", "<", 5),
    ("COc1cc2c(cc1OC)/C(=C/CCCN(C)Cc1ccccc1)OC2=O", "%", "=", 11.7),
    ("COc1cc2c(cc1OC)/C(=C/CCCN1CCCCC1)OC2=O", "%", "=", 4.9),
    ("CCN(CCCCCCC1OC(=O)c2cc(OC)c(OC)cc21)Cc1ccccc1N(C)C (stereo not drawn)", "%", "=", 7.66),
    ("CCN(CCCCC1OC(=O)c2cc(OC)c(OC)cc21)Cc1ccccc1OC (stereo not drawn)", "%", "=", 13.8),
    ("CCN(CCCCC/C=C1/OC(=O)c2cc(OC)c(OC)cc21)Cc1ccccc1N(C)C", "%", "=", 13),
    ("CCN(CC)CCCCC1OC(=O)c2cc(OC)c(OC)cc21 (stereo not drawn)", "%", "=", 15),
    ("CCN(CCC/C=C1/OC(=O)c2cc(OC)c(OC)cc21)Cc1ccc(N(C)C)cc1", "%", "=", 21.7),
    ("COc1ccccc1CN(C)CCCCC1OC(=O)c2cc(OC)c(OC)cc21 (stereo not drawn)", "%", "=", 14.4),
    ("COc1cc2c(cc1OC)C(CCCCCCN(C)Cc1ccccc1)OC2=O (stereo not drawn)", "%", "=", 13),
    ("CCN(CCC/C=C1/OC(=O)c2cc(OC)c(OC)cc21)Cc1ccccc1OC", "%", "=", 19),
    ("COc1cc2c(cc1OC)/C(=C\\CCCN(C)Cc1ccccc1)OC2=O", "%", "=", 8.6),
    ("COc1cc2c(cc1OC)C(CCCCN1CCCCC1)OC2=O (stereo not drawn)", "%", "<", 5),
    ("CCN(CCC/C=C1\\OC(=O)c2cc(OC)c(OC)cc21)Cc1ccccc1OC", "%", "=", 23.8),
]
